species: Homo sapiens; assay: […] required for elastase release in stimulated human neutrophils; assay type: functional
MEASURED_PARAMETER: IC50 (µM)
Numbers only here, please. The scale is µM.

Recorded results for 3 compounds are shown here.
O=C(/C=C/c1cc2ccccc2nc1Cl)c1ccc(F)cc1 = 3
Cc1coc(C)c1C(=O)/C=C/c1cc2ccccc2nc1Cl = 8.4
O=C(/C=C/c1ccco1)c1ccc(Cl)c(Cl)c1 = 5.4

# next compound below
In: Need IC50 of `COc1cccc(/C=C/C(=O)c2ccc(Br)cc2)c1OC` , thanks.
Out: 2.2

====

system: Mus musculus; assay: In vivo inhibition of compound required to inhibit PGE-2 levels in zymosan treated mouse air pouch at a dose of 100 nmol/pouch; format: functional
MEASURED_PARAMETER: Inhibition (%)
# output: bare number, implied unit %

Cc1coc(C)c1C(=O)/C=C/c1cc2ccccc2nc1Cl = 56.8
COc1ccc(C(=O)/C=C/c2ccc(N(C)C)cc2)cc1OC = 75.8
COc1cccc(/C=C/C(=O)c2ccc(Br)cc2)c1OC = 62

In: Fill in the recorded Inhibition for this molecule, with Mus musculus as test system: `O=C(/C=C/c1cc2ccccc2nc1Cl)c1ccc(C(F)(F)F)cc1`
Out: 46.5

In: Record `COc1cc(/C=C/C(=O)c2cc(OC)c(OC)c(OC)c2)cc(OC)c1OC` : what is its Inhibition with Mus musculus?
Out: 0

In: Lab note: need Inhibition for `COc1ccc(C(=O)/C=C/c2cc3ccccc3nc2Cl)c(OC)c1` on Mus musculus, anyone have it?
Out: 36.2

In: Give Mus musculus Inhibition for `O=C(/C=C/c1cc2ccccc2nc1Cl)c1ccc(F)cc1`
Out: 58.3

====

Below, each entry is listed alongside its reported inhibition.
biological target: Polyunsaturated fatty acid 5-lipoxygenase (Homo sapiens); test: Inhibitory concentration required against 5-lipoxygenase activity in cytosolic fractions of human neutrophils; conditions: concentration not given here
Sequence (P09917 whole entry): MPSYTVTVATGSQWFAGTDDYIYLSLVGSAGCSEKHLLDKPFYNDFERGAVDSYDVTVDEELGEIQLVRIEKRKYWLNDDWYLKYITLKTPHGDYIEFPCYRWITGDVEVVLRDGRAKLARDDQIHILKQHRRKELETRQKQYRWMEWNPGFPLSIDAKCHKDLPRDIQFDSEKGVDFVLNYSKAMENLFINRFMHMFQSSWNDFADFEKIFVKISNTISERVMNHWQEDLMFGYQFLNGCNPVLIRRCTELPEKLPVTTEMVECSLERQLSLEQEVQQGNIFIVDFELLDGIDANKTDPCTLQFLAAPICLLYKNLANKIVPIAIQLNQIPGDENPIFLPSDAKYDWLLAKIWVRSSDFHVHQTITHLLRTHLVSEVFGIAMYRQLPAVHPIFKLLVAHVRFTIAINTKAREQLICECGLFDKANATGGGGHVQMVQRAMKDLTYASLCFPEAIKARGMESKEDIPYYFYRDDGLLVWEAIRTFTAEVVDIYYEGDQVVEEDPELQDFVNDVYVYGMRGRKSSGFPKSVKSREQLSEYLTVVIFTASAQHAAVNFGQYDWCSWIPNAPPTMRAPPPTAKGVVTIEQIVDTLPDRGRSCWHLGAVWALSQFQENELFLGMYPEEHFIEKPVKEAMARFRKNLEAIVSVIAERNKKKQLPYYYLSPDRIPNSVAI
Only the number, expressed in %, is required.

These solved cases illustrate the format of a correct answer.
COc1ccc(C(=O)/C=C/c2cc3ccccc3nc2Cl)c(OC)c1 = 27.6
COc1cc(/C=C/C(=O)c2cc(OC)c(OC)c(OC)c2)cc(OC)c1OC = 14.6

Kindly review the next molecule as well.
In: For the record `COc1ccc(C(=O)/C=C/c2cc3ccccc3nc2Cl)cc1` , what value of inhibition is listed for Polyunsaturated fatty acid 5-lipoxygenase (Homo sapiens)?
Out: 42.3

====

Measured pIC50 of individual entries
molecular target: UniProt:P09917; test: Inhibitory concentration required against 5-lipoxygenase activity in cytosolic fractions of human neutrophils
Scale for pIC50: -log10 of concentration given in mol/L; no unit attached.

Sample answers from the record:
CCn1c(=O)ccc2cc(COc3cc(F)cc(C4(OC)CCOCC4)c3)ccc21 = 7.05
O=C(/C=C/c1cc2ccccc2nc1Cl)c1ccc(F)cc1 = 5.41
Cc1coc(C)c1C(=O)/C=C/c1cc2ccccc2nc1Cl = 5.46
O=C(/C=C/c1ccco1)c1ccc(Cl)c(Cl)c1 = 5.39

In: What is its pIC50 for UniProt:P09917? Entry: `COc1cccc(/C=C/C(=O)c2ccc(Br)cc2)c1OC`
Out: 5.21

====

Catalogue of inhibition values
biological target: Prostaglandin G/H synthase 2 (Homo sapiens) (UniProt P35354); experiment: Inhibition of COX-2 activity in intact human monocytes; assay type: cell-based; parameters: concentration or dose not given beside the values; conditions: concentration not given here
Report the value in % with no unit label.

Look over these answered cases.
O=C(/C=C/c1cc2ccccc2nc1Cl)c1ccc(C(F)(F)F)cc1 = 35.6
COc1ccc(C(=O)/C=C/c2cc3ccccc3nc2Cl)cc1 = 30
COc1ccc(C(=O)/C=C/c2cc3ccccc3nc2Cl)c(OC)c1 = 41.8

In: Requested field: inhibition. Item: `Cc1coc(C)c1C(=O)/C=C/c1cc2ccccc2nc1Cl`
Out: 0

In: Please report the recorded inhibition for `COc1cc(/C=C/C(=O)c2cc(OC)c(OC)c(OC)c2)cc(OC)c1OC` .
Out: 0

In: Which inhibition is listed for `COc1cc2cc(/C=C/C(=O)c3ccccc3)c(Cl)nc2cc1OC` ?
Out: 0

====

target: Polyunsaturated fatty acid 5-lipoxygenase (Homo sapiens) (UniProt P09917); assay: Inhibitory concentration required against 5-lipoxygenase activity in cytosolic fractions of human neutrophils; details: concentration not given here
Sequence (P09917 whole entry): as above
Lab note: anything with inhibition at or over 30% counts as Criterion met; the rest go in Criterion not met.

In: Answer whether inhibition of `COc1cc2cc(/C=C/C(=O)c3ccccc3)c(Cl)nc2cc1OC` is greater than or equal to 30%.
Out: Criterion met

====

test system: Mus musculus; test: In vivo inhibition of compound required to inhibit TNF-alpha levels in zymosan treated mouse air pouch at a dose of 100 nmol/pouch; type: functional
Could you please mark yes for values of Inhibition below 30% and no for values at or above it?

COc1ccc(C(=O)/C=C/c2cc3ccccc3nc2Cl)cc1 = yes
COc1ccc(C(=O)/C=C/c2ccc(C(F)(F)F)cc2)c(OC)c1 = yes

In: Given `COc1ccc(C(=O)/C=C/c2ccc(N(C)C)cc2)cc1OC` , is recorded Inhibition strictly lower than 30%?
Out: no

In: Lab note: Inhibition threshold 30%. Does this compound come in strictly under it? `COc1cc2cc(/C=C/C(=O)c3ccccc3)c(Cl)nc2cc1OC`
Out: no

In: Lab log: compare recorded Inhibition with 30%; is it strictly lower for `Cc1coc(C)c1C(=O)/C=C/c1cc2ccccc2nc1Cl` ?
Out: no

In: In the record for `COc1cc(/C=C/C(=O)c2cc(OC)c(OC)c(OC)c2)cc(OC)c1OC` , is Inhibition less than 30%?
Out: yes

In: Dear reviewer, please state whether `COc1ccc(C(=O)/C=C/c2cc3ccccc3nc2Cl)c(OC)c1` has Inhibition strictly beneath 30%.
Out: no

In: Below 30% on Inhibition? Entry `O=C(/C=C/c1ccco1)c1ccc(Cl)c(Cl)c1`
Out: yes

In: Answer whether the compound `COc1cccc(/C=C/C(=O)c2ccc(Br)cc2)c1OC` has Inhibition strictly less than 30%
Out: no

In: Hi there! Is Inhibition for `COc1cc2cc(/C=C/C(=O)c3ccc(C)cc3)c(Cl)nc2cc1OC` below 30%, do you know?
Out: yes

In: Threshold test, Inhibition < 30%: `O=C(/C=C/c1cc2ccccc2nc1Cl)c1ccc(F)cc1`
Out: yes

In: In the record for `O=C(/C=C/c1cc2ccccc2nc1Cl)c1cccnc1` , is Inhibition less than 30%?
Out: yes

In: In plain terms, does `O=C(/C=C/c1cc2ccccc2nc1Cl)c1ccc(C(F)(F)F)cc1` come in under 30% for Inhibition?
Out: yes

====

molecules and their reported Inhibition
test system: Mus musculus; assay: In vivo inhibition of compound required to inhibit PGE-2 levels in zymosan treated mouse air pouch at a dose of 100 nmol/pouch; format: functional
Report only the number, with the unit % understood.

COc1ccc(C(=O)/C=C/c2ccc(C(F)(F)F)cc2)c(OC)c1 = 25.5

In: # input molecule: `COc1ccc(C(=O)/C=C/c2cc3ccccc3nc2Cl)cc1` ; wanted: its Inhibition
Out: 23.2

In: Dear colleague, I am looking for the recorded Inhibition of the following molecule: `O=C(/C=C/c1ccco1)c1ccc(Cl)c(Cl)c1`
Out: 71

In: What measured Inhibition goes with `O=C(/C=C/c1cc2ccccc2nc1Cl)c1cccnc1` ?
Out: 69.5

In: For the molecule shown here, `COc1cc2cc(/C=C/C(=O)c3ccccc3)c(Cl)nc2cc1OC` , give the reported Inhibition.
Out: 29.9

In: Endpoint output: Inhibition of `COc1cc2cc(/C=C/C(=O)c3ccc(C)cc3)c(Cl)nc2cc1OC` . Value?
Out: 59.5

====

Target: Prostaglandin G/H synthase 2 (Homo sapiens) (UniProt P35354)
Sequence (whole entry): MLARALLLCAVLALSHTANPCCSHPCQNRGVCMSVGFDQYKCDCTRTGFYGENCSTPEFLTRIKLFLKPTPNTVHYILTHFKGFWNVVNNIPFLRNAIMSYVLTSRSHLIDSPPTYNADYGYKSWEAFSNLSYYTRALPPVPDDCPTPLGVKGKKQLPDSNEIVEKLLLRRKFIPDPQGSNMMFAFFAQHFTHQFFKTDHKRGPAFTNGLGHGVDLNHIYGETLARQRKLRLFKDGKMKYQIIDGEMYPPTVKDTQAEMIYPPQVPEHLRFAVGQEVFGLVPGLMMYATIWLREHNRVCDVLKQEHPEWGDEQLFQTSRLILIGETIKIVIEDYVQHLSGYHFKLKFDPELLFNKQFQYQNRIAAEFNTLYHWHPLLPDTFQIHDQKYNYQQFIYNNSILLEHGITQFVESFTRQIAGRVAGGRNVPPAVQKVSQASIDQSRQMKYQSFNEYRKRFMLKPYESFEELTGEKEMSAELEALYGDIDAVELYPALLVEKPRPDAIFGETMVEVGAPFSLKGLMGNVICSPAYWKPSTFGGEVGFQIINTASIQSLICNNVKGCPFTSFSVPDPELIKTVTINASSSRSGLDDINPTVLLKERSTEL
Experiment: Inhibition of COX-2 activity in intact human monocytes
Assay type: cell-based
Set-up: concentration or dose not given beside the values
Details: concentration not given here
MEASURED_PARAMETER: inhibition (%)
Field format: number, assumed %, no unit text.

Here are 5 molecules together with their reported answers.
COc1cc2cc(/C=C/C(=O)c3ccc(C)cc3)c(Cl)nc2cc1OC = 0
O=C(/C=C/c1cc2ccccc2nc1Cl)c1cccnc1 = 46.6
COc1cccc(/C=C/C(=O)c2ccc(Br)cc2)c1OC = 0
O=C(/C=C/c1cc2ccccc2nc1Cl)c1ccc(F)cc1 = 36.3
COc1ccc(C(=O)/C=C/c2ccc(C(F)(F)F)cc2)c(OC)c1 = 0

In: Give inhibition (Prostaglandin G/H synthase 2 (Homo sapiens) (UniProt P35354)) of the following molecule: `COc1ccc(C(=O)/C=C/c2ccc(N(C)C)cc2)cc1OC`
Out: 0

In: Find the measured inhibition: item `O=C(/C=C/c1ccco1)c1ccc(Cl)c(Cl)c1` , target or system Prostaglandin G/H synthase 2 (Homo sapiens) (UniProt P35354).
Out: 0
